- target_system: Bifunctional chorismate mutase/prephenate dehydratase (Escherichia coli (strain K12))
- Sequence (P0A9J8 whole entry): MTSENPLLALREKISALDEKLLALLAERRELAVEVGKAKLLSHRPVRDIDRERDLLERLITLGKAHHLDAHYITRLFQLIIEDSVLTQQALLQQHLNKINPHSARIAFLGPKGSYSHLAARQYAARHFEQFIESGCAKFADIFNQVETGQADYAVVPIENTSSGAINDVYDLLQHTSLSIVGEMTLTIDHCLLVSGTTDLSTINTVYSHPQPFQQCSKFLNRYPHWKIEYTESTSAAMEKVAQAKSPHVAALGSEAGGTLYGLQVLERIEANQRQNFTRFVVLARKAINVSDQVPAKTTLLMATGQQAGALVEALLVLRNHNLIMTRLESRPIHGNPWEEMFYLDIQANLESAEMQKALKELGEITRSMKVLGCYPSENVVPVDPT
- method_summary: Inhibition of Escherichia coli K-12 EcCM expressed in Escherichia coli BL21 Star (DE3) pLysS using chorismate as substrate assessed as disappearance of chorismate by stopped-flow analysis
IC50 strictly under 80 µM means YES; at 80 µM or over means NO.

Reference set, count: 5
[
  {
    "smiles_repr": "O=C(O)c1cccc(S(=O)(=O)Nc2ccccc2C(=O)O)c1",
    "category": "NO"
  },
  {
    "smiles_repr": "COC(=O)Oc1c(Cl)cc2oc(=O)sc2c1[N+](=O)[O-]",
    "category": "YES"
  },
  {
    "smiles_repr": "COC(=O)Oc1c([N+](=O)[O-])cc2oc(=O)sc2c1[N+](=O)[O-]",
    "category": "YES"
  },
  {
    "smiles_repr": "O=c1oc2cc(Br)c(O)c(Br)c2s1",
    "category": "NO"
  },
  {
    "smiles_repr": "O=C1S/C(=C/c2cc([N+](=O)[O-])cc([N+](=O)[O-])c2O)C(=O)N1c1ccccc1",
    "category": "NO"
  }
]

Here's the next entry for you.
State whether 80 µM exceeds IC50 recorded for `O=C(O)c1cc(S(=O)(=O)Nc2ccccc2C(=O)O)ccc1Br` .
NO
